Cited source: patent US8168651B2

System: Jurkat
assay comment: Cell proliferation modulatory activity, Jurkat
Type: cell-based
test context: Homo sapiens
Classes are defined on IC50 with ranges small value = under 2 µM, mid value = from 2 µM up to 3 µM, large value = 3 µM and over

INSERT INTO measurements (compound, discrete_label) VALUES
  ('O=C(NCCN1CCOCC1)c1ccc2c(c1)nc(NC1CC1)c1nc(NC3CC3)ncc12', 'small value'),
  ('COCCNc1ncc2c(n1)c(Nc1ccccc1)nc1cc(C(=O)O)ccc12', 'large value'),
  ('C#Cc1cccc(Nc2nc3cc(C(=O)N4CCCN(C)CC4)ccc3c3cncnc23)c1', 'large value'),
  ('COc1ccccc1Nc1nc2cc(C(=O)O)ccc2c2cnccc12', 'large value'),
  ('O=C(NC1CC1)c1ccc2c(c1)nc(Nc1cccc(Cl)c1)c1ccncc12', 'mid value'),
  ('O=C(O)c1ccc2c(c1)nc(N1CCC(c3ccccc3)C1)c1ccncc12 (stereo not shown)', 'large value'),
  ('O=C(O)c1ccc2c(c1)nc(NC1CC1)c1nc(Nc3cccc(C(F)(F)F)c3)ncc12', 'mid value'),
  ('O=C(O)c1ccc2c(c1)nc(Nc1ccccc1)c1nc(NCCCN3CCOCC3)ncc12', 'mid value'),
  ('CN(C)C(=O)c1ccc2c(c1)nc(Nc1cccc(Cl)c1)c1ccncc12', 'small value');
